# TEST SYSTEM: His-tagged recombinant human Gal-3 (hGal-3) (Homo sapiens (Human))
# Sequence (P17931 whole entry): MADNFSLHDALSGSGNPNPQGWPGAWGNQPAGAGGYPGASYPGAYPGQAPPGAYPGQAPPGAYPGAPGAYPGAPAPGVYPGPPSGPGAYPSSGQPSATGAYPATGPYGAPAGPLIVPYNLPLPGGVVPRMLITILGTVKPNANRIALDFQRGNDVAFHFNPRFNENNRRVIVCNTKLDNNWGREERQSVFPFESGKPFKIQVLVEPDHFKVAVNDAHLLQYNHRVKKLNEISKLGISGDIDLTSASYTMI
# TEST DETAILS: Gal-3 HTRF assay (His-tagged hGal-3 binding to B-ASF);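 note: compounds preincubated 30 min with hGal-3, then 1 h with B-ASF, detection via terbium anti-His antibody and streptavidin d2. Control with B-ASF counts as full signal, omitting B-ASF as background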
# CONDITION SET: HTRF, hGal-3 15 nM, B-ASF 15 nM; read-out: hGal-3 IC50
METRIC: IC50 (nM)

Answered cases to consult:
1) CCO[C@@H]1[C@@H](n2cc(-c3cc(F)c(F)c(F)c3)nn2)[C@@H](O)[C@@H](CO)O[C@H]1c1ncnn1-c1cccc(Cl)c1 : 157
2) OC[C@H]1O[C@@H](c2nncn2-c2ccc(-c3nnn[nH]3)cc2)[C@H](O)[C@@H](n2cc(-c3cc(F)c(F)c(F)c3)nn2)[C@H]1O : 820
3) OC[C@H]1O[C@@H](c2nncn2-c2ccccc2)[C@H](O)[C@@H](n2cc(-c3cc(F)c(F)c(F)c3)nn2)[C@H]1O : 210

1. OC[C@H]1O[C@@H](c2ncnn2-c2cccc(F)c2)[C@H](O)[C@@H](n2cc(-c3cc(F)c(F)c(F)c3)nn2)[C@H]1O
2. CCO[C@@H]1[C@@H](n2cc(-c3cc(F)c(F)c(F)c3)nn2)[C@@H](O)[C@@H](CO)O[C@H]1n1nncc1-c1cccc(Cl)c1
(Q) Looking only at measured IC50, which entry is lower, 1 or 2 ? Please respond with the label that marks your chosen entry.
(A) 1

I. OC[C@H]1O[C@@H](n2nncc2-c2ccc3[nH]ncc3c2)[C@H](O)[C@@H](n2cc(-c3cc(F)c(F)c(F)c3)nn2)[C@H]1O
II. Cc1nc([C@@H]2O[C@H](CO)[C@H](O)[C@H](n3cc(-c4cc(F)c(Cl)c(F)c4)nn3)[C@H]2O)n(-c2cc(Cl)ccc2Cl)n1
III. Cc1nc2ccc(-n3c([C@H]4C[C@@H](n5cc(-c6cc(F)c(F)c(F)c6)nn5)[C@@H](O)[C@@H](CO)O4)nnc3C(F)(F)F)cc2s1
IV. Cc1nc2ccc(-n3ncnc3[C@@H]3O[C@H](CO)[C@H](O)[C@H](n4cc(-c5cc(F)c(N6CCC(O)CC6)c(F)c5)nn4)[C@H]3O)cc2s1
(Q) List the 4 entries from lowest IC50 to highest IC50 value. Dear reader, please state the labels in the requested order.
(A) II, III, IV, I
(II: 50 nM, III: 80 nM, IV: 130 nM, I: 640 nM)

I. OC[C@H]1O[C@@H](n2nncc2-c2ccccc2)C[C@@H](n2cc(-c3cc(F)c(F)c(F)c3)nn2)[C@H]1O
II. OC[C@H]1O[C@@H](c2ncnn2-c2ccc3ncsc3c2)[C@H](O)[C@@H](n2cc(-c3cc(F)c(F)c(F)c3)nn2)[C@H]1O
III. COc1ccc(-n2cnnc2[C@@H]2O[C@H](CO)[C@H](O)[C@H](n3cc(-c4cc(F)c(F)c(F)c4)nn3)[C@H]2O)cc1
(Q) List the 3 entries from lowest IC50 to highest IC50 value. Dear reader, please state the labels in the requested order.
(A) II, III, I
(II: 40 nM, III: 450 nM, I: 902 nM)
